assayed.target: T1, recombinant human biotinylated mesothelin extracellular domain with C-terminal Avi-Tag (human, site selectively biotinylated in vitro with BirA enzyme at the C-terminal Avi-Tag)
T1 construct: Produced in HEK293F cells; as printed it includes a His tag and the Avi-Tag; Immobilised on a streptavidin sensor chip for SPR; also called human MSLN ECD; human mesothelin ECD
T1 chain: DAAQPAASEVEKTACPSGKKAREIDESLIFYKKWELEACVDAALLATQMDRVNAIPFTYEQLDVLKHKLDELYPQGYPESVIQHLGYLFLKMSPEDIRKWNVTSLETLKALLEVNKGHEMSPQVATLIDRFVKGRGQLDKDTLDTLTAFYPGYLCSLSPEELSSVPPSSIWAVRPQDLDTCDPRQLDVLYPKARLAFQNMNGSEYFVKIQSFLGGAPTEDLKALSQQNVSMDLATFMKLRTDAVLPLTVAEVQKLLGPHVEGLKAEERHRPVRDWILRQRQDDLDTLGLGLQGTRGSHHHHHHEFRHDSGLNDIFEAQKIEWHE
run.description: SPR, Biacore T200; biotinylated mesothelin ECD on streptavidin chip, scFv injected; 1:1 binding model
quantity.name: koff (s⁻¹)
Please state the figure in s⁻¹; there is no need to write the unit.

koff in this record for M5 scFv (human anti-mesothelin scFv, soluble, His-tagged) (scFv, also called scFv M5; XP31-20LC) scFv: QVQLVQSGAEVEKPGASVKVSCKASGYTFTDYYMHWVRQAPGQGLEWMGWINPNSGGTNYAQKFQGRVTMTRDTSISTAYMELSRLRSDDTAVYYCASGWDFDYWGQGTLVTVSSGGGGSGGGGSGGGGSGGGGSDIVMTQSPSSLSASVGDRVTITCRASQSIRYYLSWYQQKPGKAPKLLIYTASILQNGVPSRFSGSGSGTDFTLTISSLQPEDFATYYCLQTYTTPDFGPGTKVEIKGSHHHHHHHH : 0.00113

Data origin: patent US20160311917A1
